Hello, the source for this data is paper PMC10397247, in case you need it.

- measured on: T1, O6-bP
- T1 chain: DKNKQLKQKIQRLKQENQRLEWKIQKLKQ
- assay: two-hybrid library CCNG1;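 note: natural log of median RNA to DNA barcode read ratio; higher means stronger binding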
value kind: interaction score

Examples with their reported interaction score follow.
| binder | value kind | endpoint result |
| --- | --- | --- |
| DEIKQLEQENQRLEQKIQRLKWENQKLEQ [O15-bP] | interaction score | -0.729 |
| DKNKQLKQKIQRLKQENQRLEWKIQKLKQ [O6-bP] | interaction score | -0.702 |
| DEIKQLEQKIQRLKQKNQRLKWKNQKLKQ [O12-bP] | interaction score | -1.02 |
| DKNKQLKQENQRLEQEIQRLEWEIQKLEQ [O1-bP] | interaction score | -0.442 |
| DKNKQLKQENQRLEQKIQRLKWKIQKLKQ [O10-bP] | interaction score | -1.19 |

[I] DKIKQLKQKNQRLKQEIQRLEWKNQKLKQ [O16-bP]
[II] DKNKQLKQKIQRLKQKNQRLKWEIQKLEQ [O13-bP]
[III] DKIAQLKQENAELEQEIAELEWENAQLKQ [4H2692-bA]
Incoming: Ordering criterion: interaction score; begin with the maximum. Rank the items, then write their labels in that order.
Outgoing: III, I, II

[1] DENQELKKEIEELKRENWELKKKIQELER [4H1629-bH]
[2] DEIKQLEQKIQRLKQENQRLEWENQKLEQ [O3-bP]
Incoming: Between 1 and 2 , which one has the lower reported interaction score value? To answer, give the label that identifies your chosen option.
Outgoing: 2
(2: -0.828, 1: 1.7)
